# experimental target: factor Xa (FXa) (Homo sapiens)
# Construct: gene F10
# Sequence (P00742 41-179): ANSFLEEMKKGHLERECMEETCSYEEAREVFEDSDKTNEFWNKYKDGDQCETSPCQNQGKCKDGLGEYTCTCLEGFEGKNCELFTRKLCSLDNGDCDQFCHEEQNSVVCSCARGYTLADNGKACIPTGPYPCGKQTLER
# Sequence (P00742 235-488): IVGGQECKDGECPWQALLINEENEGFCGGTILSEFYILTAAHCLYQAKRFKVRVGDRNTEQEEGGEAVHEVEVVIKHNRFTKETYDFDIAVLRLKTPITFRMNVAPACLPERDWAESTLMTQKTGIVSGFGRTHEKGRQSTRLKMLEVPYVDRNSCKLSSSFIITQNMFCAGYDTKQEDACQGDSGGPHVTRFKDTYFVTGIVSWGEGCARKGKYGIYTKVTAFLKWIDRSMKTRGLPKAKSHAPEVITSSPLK
# experiment notes: chromogenic substrate hydrolysis, […] nm
# Assay type: biochemical
Measured IC50 of individual entries
experimental endpoint: IC50 (µM)

{"molecule": "COC(=O)/C=C1\\SC(N/N=C2\\C(=O)N3c4c2cc(OC)cc4C(C)CC3(C)C)=NC1=O (centres unmarked)", "observed measurement": 5.76}
{"molecule": "COC(=O)/C=C1\\SC(N/N=C2\\C(=O)N3c4c(cc(C)c(C)c42)C(C)CC3(C)C)=NC1=O (centres unmarked)", "observed measurement": 4.02}
{"molecule": "COC(=O)/C=C1\\SC(N/N=C2\\C(=O)N3c4c2cc(Cl)cc4C(C)CC3(C)C)=NC1=O (centres unmarked)", "observed measurement": 2.84}
{"molecule": "COC(=O)/C=C1\\SC(N/N=C2\\C(=O)N3c4c2cc(Br)cc4C(C)(c2ccccc2)CC3(C)C)=NC1=O (centres unmarked)", "observed measurement": 1.83}
{"molecule": "COC(=O)/C=C1\\SC(N/N=C2\\C(=O)N3c4c2cc(Br)cc4C(C)(c2ccc(Cl)cc2)CC3(C)C)=NC1=O (centres unmarked)", "observed measurement": 1.74}
{"molecule": "COC(=O)/C=C1\\SC(N/N=C2\\C(=O)N3c4c2cc(Cl)cc4C(C)(c2ccc(Cl)cc2)CC3(C)C)=NC1=O (centres unmarked)", "observed measurement": 1.17}
{"molecule": "COC(=O)/C=C1\\SC(N/N=C2\\C(=O)N3c4c2cc(Cl)cc4C(C)(c2ccccc2)CC3(C)C)=NC1=O (centres unmarked)", "observed measurement": 1.34}
{"molecule": "COC(=O)/C=C1\\SC(N/N=C2\\C(=O)N3c4c2cccc4C(C)(c2ccccc2)CC3(C)C)=NC1=O (centres unmarked)", "observed measurement": 1.86}

---

# experimental target: factor XIa (FXIa) (Homo sapiens, UniProt P03951)
# Construct: gene F11
# Sequence (P03951 19-387): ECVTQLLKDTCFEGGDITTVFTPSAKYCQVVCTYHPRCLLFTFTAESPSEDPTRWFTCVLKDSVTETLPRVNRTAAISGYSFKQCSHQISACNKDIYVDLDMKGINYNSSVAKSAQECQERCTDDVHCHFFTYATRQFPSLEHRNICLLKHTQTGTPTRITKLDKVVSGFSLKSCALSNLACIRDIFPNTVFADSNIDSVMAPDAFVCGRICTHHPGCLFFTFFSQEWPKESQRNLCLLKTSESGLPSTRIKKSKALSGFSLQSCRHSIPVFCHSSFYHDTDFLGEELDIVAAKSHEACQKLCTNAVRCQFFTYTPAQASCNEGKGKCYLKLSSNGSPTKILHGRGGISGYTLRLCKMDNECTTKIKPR
# Sequence (P03951 388-625): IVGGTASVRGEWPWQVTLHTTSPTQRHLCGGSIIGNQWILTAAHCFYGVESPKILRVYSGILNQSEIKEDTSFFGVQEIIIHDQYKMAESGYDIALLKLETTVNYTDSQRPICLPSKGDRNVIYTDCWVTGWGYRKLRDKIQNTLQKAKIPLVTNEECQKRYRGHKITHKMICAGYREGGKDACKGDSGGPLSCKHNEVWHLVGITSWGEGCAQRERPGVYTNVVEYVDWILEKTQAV
# experiment notes: chromogenic substrate hydrolysis, […] nm
# Assay type: biochemical
# test conditions: […] enzyme, […] S2366, pH […], up to […] DMSO
experimental endpoint: IC50 (µM)

{"molecule": "COC(=O)C=C1SC(NN=C2C(=O)N3c4c2cc(I)cc4C(C)CC3(C)C)=NC1=O (mixture of isomers) [3e]", "observed measurement": 8.03}

Hey, just so you know, these numbers are from paper PMC10818416.
